Where do the numbers come from? From ChEMBL document CHEMBL1131768.

- PROTOCOL SUMMARY: in vivo
- CONDITION DETAILS: dog, iv
MEASURED PARAMETER: clearance (mL/min/kg)
Reply numerically in mL/min/kg, unit not repeated.

clearance reading for CN1Cc2cc(C(=O)NCc3cccc(N)n3)ccc2N[C@@H](CC(=O)O)C1=O : 7.8

====

- PROTOCOL SUMMARY: in vivo
- CONDITION DETAILS: rat, iv
MEASURED PARAMETER: half-life (min)
Respond numerically; units are min and should not be typed.

Entry CN1Cc2cc(C(=O)NCc3cccc(N)n3)ccc2N[C@@H](CC(=O)O)C1=O ; half-life = 45

====

- PROTOCOL SUMMARY: in vivo
- CONDITION DETAILS: rat, po
MEASURED PARAMETER: bioavailability

Reported bioavailability for CN1Cc2cc(C(=O)NCc3cccc(N)n3)ccc2N[C@@H](CC(=O)O)C1=O was 13%

====

- PROTOCOL SUMMARY: in vivo
- CONDITION DETAILS: dog, po
MEASURED PARAMETER: bioavailability

Recorded result, CN1Cc2cc(C(=O)NCc3cccc(N)n3)ccc2N[C@@H](CC(=O)O)C1=O , bioavailability: 10%

====

- PROTOCOL SUMMARY: in vivo
- CONDITION DETAILS: dog, iv
MEASURED PARAMETER: half-life (min)
# output: bare number, implied unit min

// field: half-life; key: CN1Cc2cc(C(=O)NCc3cccc(N)n3)ccc2N[C@@H](CC(=O)O)C1=O ; value = 47
